As shown below, each of these compounds has a reported HUMAN MICROSOMAL STABILITY (% REMAINING AFTER 30 MINUTES) value.
- protocol description: In vitro human microsomal stability assay
- Type: in vitro ADME
- condition info: human, microsomes, 0.5 h, 0.5 μM, pH 7.4

Worked examples, 3 compounds total:
- compound: "OC(C1CCCc2cccnc21)C1(c2ccc(C(F)(F)F)cc2)CCC1 (single isomer, unassigned) [Example 183]"
  observed: "<0.01%"
- compound: "N[C@@H]1CCC[C@H]1[C@@H](O)C1(c2cccc(C(F)(F)F)c2)CCC1"
  observed: ">85%"
- compound: "OC(c1ccccn1)C1(c2ccc(C(F)(F)F)cc2)CNC1 (stereo not shown)"
  observed: ">85%"

Recorded HUMAN MICROSOMAL STABILITY (% REMAINING AFTER 30 MINUTES) (compound OC(C1CCCc2cccnc21)C1(c2ccc(F)c(F)c2)CCC1 (single isomer, unassigned) [Example 169] ): <0.01%

Recorded HUMAN MICROSOMAL STABILITY (% REMAINING AFTER 30 MINUTES) (compound CC(=O)O[C@H](c1ccccn1)C1(c2ccc(OC(F)(F)F)cc2)CCC1 ): <0.01%

Recorded HUMAN MICROSOMAL STABILITY (% REMAINING AFTER 30 MINUTES) (compound O=C1CC(c2cc(C(F)(F)F)ccn2)([C@H](O)c2ccccn2)C1 ): >85%

Recorded HUMAN MICROSOMAL STABILITY (% REMAINING AFTER 30 MINUTES) (compound N[C@H]1CCC[C@H]1[C@@H](O)C1(c2ccccc2F)CCC1 ): >85%
